study-target: ALK1 (Homo sapiens, UniProt P37023)
Sequence (P37023 22-503): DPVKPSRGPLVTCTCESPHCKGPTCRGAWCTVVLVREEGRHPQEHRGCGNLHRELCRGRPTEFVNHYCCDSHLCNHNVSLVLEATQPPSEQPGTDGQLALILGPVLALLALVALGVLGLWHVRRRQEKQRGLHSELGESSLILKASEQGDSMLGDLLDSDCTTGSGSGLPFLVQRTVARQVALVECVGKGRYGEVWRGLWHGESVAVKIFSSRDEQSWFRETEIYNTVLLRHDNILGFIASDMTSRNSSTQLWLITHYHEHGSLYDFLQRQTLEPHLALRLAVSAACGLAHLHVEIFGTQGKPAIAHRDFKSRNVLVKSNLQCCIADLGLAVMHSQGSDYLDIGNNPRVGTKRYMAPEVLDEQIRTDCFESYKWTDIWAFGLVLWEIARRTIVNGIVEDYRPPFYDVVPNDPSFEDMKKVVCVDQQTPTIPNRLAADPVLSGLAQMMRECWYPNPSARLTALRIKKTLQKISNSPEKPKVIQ
experiment: TR-FRET enzymatic ALK kinase assay, ALK1
pIC50: −log10 of the molar value.
Returns one of Y or N; Y when pIC50 is >= 7.

Asked: Threshold query (pIC50 >= 7) on C[C@@H]1CNC[C@H](C)N1c1ccc(-c2cnc3c(-c4ccc(C(N)=O)c5ccccc45)cnn3c2)cc1 [Compound 9]
Given back: Y

Asked: Threshold query (pIC50 >= 7) on C[C@@H]1CNC[C@H](C)N1c1ccc(-c2cnc3c(-c4cccc(C(F)(F)F)c4)cnn3c2)cc1 [Compound 81]
Given back: N

Asked: Threshold query (pIC50 >= 7) on CN(C)C(=O)c1ccc(-c2cnn3cc(-c4ccc(N5CCNCC5)cc4)cnc23)c2ccccc12 [Compound 4]
Given back: N

Asked: Threshold query (pIC50 >= 7) on NS(=O)(=O)c1ccc(-c2cnn3cc(-c4ccc(C5(O)CCNCC5)nc4)cnc23)c2ccccc12 [Compound 56]
Given back: N

Asked: Threshold query (pIC50 >= 7) on O=C(O)c1cccc2c(-c3cnn4cc(-c5ccc(N6CCNCC6)cc5)cnc34)cccc12 [Compound 5]
Given back: Y

Asked: Threshold query (pIC50 >= 7) on CC(N)c1ccc(-c2cnc3c(-c4cccc(C(C)O)c4)cnn3c2)cc1 (stereo not shown) [Compound 188]
Given back: N
